Origin of values: ChEMBL document CHEMBL1933055

PROTOCOL_NOTES: Clearance in iv dosed dog
Format: ADME, organism-based, Canis lupus familiaris
CONDITION_DESCRIPTION: in vivo

STRUCTURE | clearance [mL/min/kg]
C[C@H]1O[C@@H](n2cnc3c(N)nc(O[C@H]4CC[C@H](C(F)(F)F)CC4)nc32)[C@H](O)[C@@H]1O | 7.7

* * *

System: Streptococcus pneumoniae
PROTOCOL_NOTES: Antibacterial activity against Streptococcus pneumoniae
Format: functional

COMPOUND | MIC (µg/mL)
C[C@H]1O[C@@H](n2cnc3c(N)nc(OC4CCOC4)nc32)[C@H](O)[C@@H]1O (some centres undefined) | 16
CC1CC1COc1nc(N)c2ncn([C@@H]3O[C@H](CF)[C@@H](O)[C@H]3O)c2n1 (some centres undefined) | 4
C[C@H]1O[C@@H](n2cnc3c(N)nc(OCC4CCC(F)(F)CC4)nc32)[C@H](O)[C@@H]1O | 16
C[C@H]1O[C@@H](n2cnc3c(N)nc(OC4CC(F)(F)C4(F)F)nc32)[C@H](O)[C@@H]1O (some centres undefined) | 16
C[C@H]1O[C@@H](n2cnc3c(N)nc(OC4CCC(F)(F)CC4)nc32)[C@H](O)[C@@H]1O | 8
C[C@H]1O[C@@H](n2cnc3c(N)nc(O[C@H]4CC[C@H](C(F)(F)F)CC4)nc32)[C@H](O)[C@@H]1O | 2
C[C@H]1O[C@@H](n2cnc3c(N)nc(OCC4CC(F)(F)C4(F)F)nc32)[C@H](O)[C@@H]1O (some centres undefined) | 4
C[C@H]1O[C@@H](n2cnc3c(N)nc(OC(C4CC4)C(F)(F)F)nc32)[C@H](O)[C@@H]1O (some centres undefined) | 8
Nc1nc(OCC2CC2)nc2c1ncn2[C@@H]1O[C@H](CF)[C@@H](O)[C@H]1O | 8

* * *

Below, each entry is listed with its recorded logD.
PROTOCOL_NOTES: Lipophilicity, log D of the compound
CONDITION_DESCRIPTION: octanol/water
READOUT_LABEL: logD

COMPOUND | REPORTED_RESULT
C[C@H]1O[C@@H](n2cnc3c(N)nc(OC4CCOC4)nc32)[C@H](O)[C@@H]1O (stereo partly specified) | -0.06
C[C@H]1O[C@@H](n2cnc3c(N)nc(OC4CC(F)(F)C4(F)F)nc32)[C@H](O)[C@@H]1O (stereo partly specified) | 1.3
C[C@H]1O[C@@H](n2cnc3c(N)nc(OCC4CCC(F)(F)CC4)nc32)[C@H](O)[C@@H]1O | 1.7
C[C@H]1O[C@@H](n2cnc3c(N)nc(OCC4CC(F)(F)C4(F)F)nc32)[C@H](O)[C@@H]1O (stereo partly specified) | 1.4
C[C@H]1O[C@@H](n2cnc3c(N)nc(O[C@H]4CC[C@H](C(F)(F)F)CC4)nc32)[C@H](O)[C@@H]1O | 2.2
C[C@H]1O[C@@H](n2cnc3c(N)nc(OC(C4CC4)C(F)(F)F)nc32)[C@H](O)[C@@H]1O (stereo partly specified) | 1.8

* * *

PROTOCOL_NOTES: Plasma clearance in rat at 3 mg/kg, iv
Type: ADME, organism-based
Parameters: dose 3 mg/kg, route intravenous
// boundary case: clearance equal to 70 mL/min/kg maps to FALSE; strictly smaller maps to TRUE

COMPOUND | GROUP
Nc1nc(OC2CCCC2)nc2c1ncn2[C@@H]1O[C@H](CF)[C@@H](O)[C@H]1O | FALSE
C[C@H]1O[C@@H](n2cnc3c(N)nc(O[C@H]4CC[C@H](C)CC4)nc32)[C@H](O)[C@@H]1O | FALSE
C[C@H]1O[C@@H](n2cnc3c(N)nc(OC4C[C@@H]5C[C@@H]5C4)nc32)[C@H](O)[C@@H]1O (stereo partly specified) | TRUE
C[C@H]1O[C@@H](n2cnc3c(N)nc(OC4CCCC4)nc32)[C@H](O)[C@@H]1O | TRUE
Nc1nc(OCC2CCC2)nc2c1ncn2[C@@H]1O[C@H](CF)[C@@H](O)[C@H]1O | FALSE
C[C@H]1O[C@@H](n2cnc3c(N)nc(OCC4CC45CC5)nc32)[C@H](O)[C@@H]1O (stereo partly specified) | FALSE

* * *

PROTOCOL_NOTES: Oral bioavailability in rat
Format: ADME, organism-based
CONDITION_DESCRIPTION: in vivo

STRUCTURE | bioavailability / %
C[C@H]1O[C@@H](n2cnc3c(N)nc(O[C@H]4CC[C@H](C(F)(F)F)CC4)nc32)[C@H](O)[C@@H]1O | 86

* * *

PROTOCOL_NOTES: Solubility of the compound
Type: physicochemical
READOUT_LABEL: solubility (µM)

STRUCTURE | UNIT_SPEC | REPORTED_RESULT
C[C@H]1O[C@@H](n2cnc3c(N)nc(O[C@H]4CC[C@H](C(F)(F)F)CC4)nc32)[C@H](O)[C@@H]1O | µM | 800

* * *

Each entry below lists one item and its recorded CL renal value.
PROTOCOL_NOTES: Renal clearance in iv dosed rat
Type: ADME, organism-based, Kidney
CONDITION_DESCRIPTION: in vivo

COMPOUND | UNIT_SPEC | CL renal
CC1CC1COc1nc(N)c2ncn([C@@H]3O[C@H](CF)[C@@H](O)[C@H]3O)c2n1 (some centres undefined) | L/h/kg | 0.66
C[C@H]1O[C@@H](n2cnc3c(N)nc(OC4CC(F)(F)C4(F)F)nc32)[C@H](O)[C@@H]1O (some centres undefined) | L/h/kg | 0.96
C[C@H]1O[C@@H](n2cnc3c(N)nc(OCC4CCC(F)(F)CC4)nc32)[C@H](O)[C@@H]1O | L/h/kg | 0.48
C[C@H]1O[C@@H](n2cnc3c(N)nc(OC4CCOC4)nc32)[C@H](O)[C@@H]1O (some centres undefined) | L/h/kg | 0.78
C[C@H]1O[C@@H](n2cnc3c(N)nc(OCC4CC(F)(F)C4(F)F)nc32)[C@H](O)[C@@H]1O (some centres undefined) | L/h/kg | 1.02
C[C@H]1O[C@@H](n2cnc3c(N)nc(O[C@H]4CC[C@H](C(F)(F)F)CC4)nc32)[C@H](O)[C@@H]1O | L/h/kg | 0.12
C[C@H]1O[C@@H](n2cnc3c(N)nc(OC4CCC(F)(F)CC4)nc32)[C@H](O)[C@@H]1O | L/h/kg | 0.9
C[C@H]1O[C@@H](n2cnc3c(N)nc(OC(C4CC4)C(F)(F)F)nc32)[C@H](O)[C@@H]1O (some centres undefined) | L/h/kg | 0.3
Nc1nc(OCC2CC2)nc2c1ncn2[C@@H]1O[C@H](CF)[C@@H](O)[C@H]1O | L/h/kg | 0.78

* * *

PROTOCOL_NOTES: Total clearance in iv dosed rat
Type: ADME, organism-based
CONDITION_DESCRIPTION: in vivo
Class (required): determined from clearance; valid ranges are label 0 (below 30 mL/min/kg), label 1 (30 mL/min/kg to below 70 mL/min/kg), label 2 (70 mL/min/kg or more)

COMPOUND | GROUP
C[C@H]1O[C@@H](n2cnc3c(N)nc(O[C@H]4CC[C@H](C(F)(F)F)CC4)nc32)[C@H](O)[C@@H]1O | label 0
C[C@H]1O[C@@H](n2cnc3c(N)nc(OC4CCC(F)(F)CC4)nc32)[C@H](O)[C@@H]1O | label 1
Nc1nc(OCC2CC2)nc2c1ncn2[C@@H]1O[C@H](CF)[C@@H](O)[C@H]1O | label 1
C[C@H]1O[C@@H](n2cnc3c(N)nc(OCC4CC(F)(F)C4(F)F)nc32)[C@H](O)[C@@H]1O (some centres undefined) | label 2
CC1CC1COc1nc(N)c2ncn([C@@H]3O[C@H](CF)[C@@H](O)[C@H]3O)c2n1 (some centres undefined) | label 2
C[C@H]1O[C@@H](n2cnc3c(N)nc(OC4CCOC4)nc32)[C@H](O)[C@@H]1O (some centres undefined) | label 1
C[C@H]1O[C@@H](n2cnc3c(N)nc(OC4CC(F)(F)C4(F)F)nc32)[C@H](O)[C@@H]1O (some centres undefined) | label 0
C[C@H]1O[C@@H](n2cnc3c(N)nc(OC(C4CC4)C(F)(F)F)nc32)[C@H](O)[C@@H]1O (some centres undefined) | label 2
C[C@H]1O[C@@H](n2cnc3c(N)nc(OCC4CCC(F)(F)CC4)nc32)[C@H](O)[C@@H]1O | label 1
